# assay.text: TPP assay / affinity (Examples 4-5)
# Format: biochemical
# setup.conditions: 5.0 mM TPP, 20 minutes, 37° C.; FIG. 8B, 9C
reported.endpoint: Hydrolysis of TPP (in words)

1. L66V (protein, listed as Shigella flexneri) MKTKNFLLFCIATNMIFIPSANALKAEGFLTQQTSPDSLSILPPPPAENSVVFQADKAHYEFGRSVRDANRVRLASEDAYYENFGLAFSDAYGMDISRENTPILYQLLTQVLQDSHDYAVRNAKEYYKRVRPFVIYKDATCTPDKDEKMAITGSYPSGHASFGWAVALILAEINPQRKAEILRRGYEFGESRVICGAHWQSDVEAGRLMGASVVAVLHNTPEFTKSLSEAKKEFEELNTPTNELTP :: could hydrolyse
2. F53V: Shigella flexneri apyrase (SEQ ID NO: 1) with single substitution F53V (protein, listed as Shigella flexneri) MKTKNFLLFCIATNMIFIPSANALKAEGFLTQQTSPDSLSILPPPPAENSVVVQADKAHYEFGRSLRDANRVRLASEDAYYENFGLAFSDAYGMDISRENTPILYQLLTQVLQDSHDYAVRNAKEYYKRVRPFVIYKDATCTPDKDEKMAITGSYPSGHASFGWAVALILAEINPQRKAEILRRGYEFGESRVICGAHWQSDVEAGRLMGASVVAVLHNTPEFTKSLSEAKKEFEELNTPTNELTP :: could hydrolyse
